Source listed as paper PMC8817670.

- test-protocol: Measurement of logD
- Assay type: physicochemical
- particulars: n-octanol/sodium phosphate buffer, pH 7.4
molecules and their reported logD
Hey, just send me the number, nothing else.

Answered cases to consult:
CC[C@@H](C)N(C)C(=O)c1nc(-c2cccc(C(F)(F)F)c2)c2ccccc2n1
3.71
CC[C@@H](C)N(C)C(=O)c1nc(-c2ccc(C(F)(F)F)cc2)c2ccccc2n1
3.93

Query molecule follows.
What value of logD has been recorded for this entry: CC[C@@H](C)N(C)C(=O)c1nc(-c2ccccc2C(F)(F)F)c2ccccc2n1
3.25

----------
Entries annotated with measured pKi
- measured-target: human cerebellum TSPO, LAB genotype (Homo sapiens, UniProt P30536)
- Sequence (P30536 2-169): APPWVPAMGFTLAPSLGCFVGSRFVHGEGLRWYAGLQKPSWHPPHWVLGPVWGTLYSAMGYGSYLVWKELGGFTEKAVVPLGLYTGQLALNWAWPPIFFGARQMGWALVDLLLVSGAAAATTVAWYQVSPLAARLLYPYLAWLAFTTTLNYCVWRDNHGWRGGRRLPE
- test-protocol: [3H]PK11195 binding assay, human cerebellum homogenates, LAB genotype
pKi is a log-scale quantity: -log10 of the concentration expressed in molar.

For the molecule CC[C@@H](C)N(C)C(=O)c1nc(-c2ccc(C(F)(F)F)cc2)c2ccccc2n1 , what pKi is on record?
8.40

How about this molecule: CC[C@@H](C)N(C)C(=O)c1nc(-c2ccccc2C(F)(F)F)c2ccccc2n1
7.43

CC[C@@H](C)N(C)C(=O)c1nc(-c2cccc(C(F)(F)F)c2)c2ccccc2n1 , same question.
7.43
